assay: Lethal dose after peroral administration; assay type: toxicity, organism-based; details: mouse, in vivo, po
Note to self: LD50 under 300 mg/kg means 1, ties and anything higher get 0.

[[record]]
smiles_notation = "C/C(=C\\c1cccc(C(F)(F)F)c1)C(=O)NC1CC1"
classification = 0

[[record]]
smiles_notation = "C/C(C(=O)NC1CC1)=C(\\C)c1ccc(Br)cc1"
classification = 0

[[record]]
smiles_notation = "C/C(C(=O)NC1CC1)=C(\\C)c1cccc(C(F)(F)F)c1"
classification = 0

[[record]]
smiles_notation = "C/C(C(=O)NC1CC1)=C(/C)c1cccc(C(F)(F)F)c1"
classification = 1

[[record]]
smiles_notation = "C/C(C(=O)NC1CC1)=C(/C)c1ccccc1"
classification = 0


---

tested on: Mus musculus; assay: Compound was evaluated for anticonvulsant activity in mouse after peroral administration.; format: functional; settings: po
Note to self: ED50 under 20 mg/kg means yes (1), ties and anything higher get no (0).

[[record]]
molecule = "C/C(C(=O)NC1CC1)=C(/C)c1ccccc1"
target = "Mus musculus"
classification = "no (0)"

[[record]]
molecule = "C=CCNC(=O)/C=C/c1ccccc1"
target = "Mus musculus"
classification = "no (0)"

[[record]]
molecule = "C/C(=C\\c1cccc(C(F)(F)F)c1)C(N)=O"
target = "Mus musculus"
classification = "no (0)"

[[record]]
molecule = "C=CCNC(=O)/C(C)=C(\\C)c1ccc(Cl)cc1"
target = "Mus musculus"
classification = "yes (1)"

[[record]]
molecule = "C/C(C(=O)NC1CC1)=C(/C)c1cccc(C(F)(F)F)c1"
target = "Mus musculus"
classification = "yes (1)"

[[record]]
molecule = "NC(=O)/C=C/c1cccc(C(F)(F)F)c1"
target = "Mus musculus"
classification = "no (0)"

[[record]]
molecule = "O=C(/C=C/c1cccc(C(F)(F)F)c1)NC1CC1"
target = "Mus musculus"
classification = "yes (1)"

[[record]]
molecule = "CCC1(c2ccccc2)C(=O)N=C([O-])NC1=O.[Na+] (centres undefined) [PHENOBARBITAL SODIUM]"
target = "Mus musculus"
classification = "yes (1)"

[[record]]
molecule = "C/C(C(=O)NC1CC1)=C(\\C)c1cccc(C(F)(F)F)c1"
target = "Mus musculus"
classification = "no (0)"


---

test system: Mus musculus; experiment: Compound was evaluated for anticonvulsant activity in mouse after peroral administration.; format: functional; conditions: po
Measured Metric: ED50 (mg/kg)

[[record]]
smiles_notation = "C/C(C(=O)NC1CC1)=C(\\C)c1ccc(Br)cc1"
measured_metric = "ED50"
value_unit = "mg/kg"
data_value = 52.4

[[record]]
smiles_notation = "C=CCNC(=O)/C(C)=C/c1ccccc1"
measured_metric = "ED50"
value_unit = "mg/kg"
data_value = 53.8

[[record]]
smiles_notation = "C/C(C(=O)NC1CC1)=C(/C)c1ccc(Cl)cc1"
measured_metric = "ED50"
value_unit = "mg/kg"
data_value = 11.4

[[record]]
smiles_notation = "C/C(=C\\c1cccc(C(F)(F)F)c1)C(=O)NC1CC1"
measured_metric = "ED50"
value_unit = "mg/kg"
data_value = 24.1

[[record]]
smiles_notation = "C/C(C(=O)NC1CC1)=C(\\C)c1ccc(Cl)cc1"
measured_metric = "ED50"
value_unit = "mg/kg"
data_value = 36.3

[[record]]
smiles_notation = "C#CCNC(=O)/C(C)=C(\\C)c1ccc(Cl)cc1"
measured_metric = "ED50"
value_unit = "mg/kg"
data_value = 10.6

[[record]]
smiles_notation = "O=C1NC(=O)C(c2ccccc2)(c2ccccc2)N1"
measured_metric = "ED50"
value_unit = "mg/kg"
data_value = 9.11

[[record]]
smiles_notation = "C#CCNC(=O)/C(C)=C(\\C)c1cccc(C(F)(F)F)c1"
measured_metric = "ED50"
value_unit = "mg/kg"
data_value = 25.1

[[record]]
smiles_notation = "C=CCNC(=O)/C=C(\\C)c1ccccc1"
measured_metric = "ED50"
value_unit = "mg/kg"
data_value = 65.8

[[record]]
smiles_notation = "C/C(C(N)=O)=C(\\C)c1cccc(C(F)(F)F)c1"
measured_metric = "ED50"
value_unit = "mg/kg"
data_value = 32.2

[[record]]
smiles_notation = "C/C(C(N)=O)=C(/C)c1ccc(Cl)cc1"
measured_metric = "ED50"
value_unit = "mg/kg"
data_value = 20.9

[[record]]
smiles_notation = "C=CCNC(=O)/C(C)=C(\\C)c1ccccc1"
measured_metric = "ED50"
value_unit = "mg/kg"
data_value = 67


---

test: Lethal dose after peroral administration; assay type: toxicity, organism-based; settings: mouse, in vivo, po
Quick reference for LD50 among some molecules
Measured Metric: LD50 (mg/kg)

[[record]]
smiles_notation = "C=CCNC(=O)/C(C)=C/c1ccccc1"
measured_metric = "LD50"
bound_type = "="
data_value = 600

[[record]]
smiles_notation = "NC(=O)/C=C/c1cccc(C(F)(F)F)c1"
measured_metric = "LD50"
bound_type = "="
data_value = 600

[[record]]
smiles_notation = "C/C(C(N)=O)=C(/C)c1ccc(Cl)cc1"
measured_metric = "LD50"
bound_type = "="
data_value = 550

[[record]]
smiles_notation = "C=CCNC(=O)/C=C(\\C)c1ccccc1"
measured_metric = "LD50"
bound_type = "="
data_value = 450

[[record]]
smiles_notation = "C/C(C(N)=O)=C(\\C)c1cccc(C(F)(F)F)c1"
measured_metric = "LD50"
bound_type = "="
data_value = 600

[[record]]
smiles_notation = "C/C(C(N)=O)=C(/C)c1cccc(C(F)(F)F)c1"
measured_metric = "LD50"
bound_type = "="
data_value = 200

[[record]]
smiles_notation = "C/C(C(=O)NC1CC1)=C(\\C)c1ccccc1"
measured_metric = "LD50"
bound_type = "="
data_value = 600

[[record]]
smiles_notation = "C#CCNC(=O)/C(C)=C(\\C)c1cccc(C(F)(F)F)c1"
measured_metric = "LD50"
bound_type = "="
data_value = 170

[[record]]
smiles_notation = "C/C(C(N)=O)=C(\\C)c1ccccc1"
measured_metric = "LD50"
bound_type = ">"
data_value = 800

[[record]]
smiles_notation = "O=C(/C=C/c1cccc(C(F)(F)F)c1)NC1CC1"
measured_metric = "LD50"
bound_type = "="
data_value = 700

[[record]]
smiles_notation = "C=CCNC(=O)/C=C/c1ccccc1"
measured_metric = "LD50"
bound_type = "="
data_value = 300

[[record]]
smiles_notation = "C/C(=C\\c1cccc(C(F)(F)F)c1)C(N)=O"
measured_metric = "LD50"
bound_type = "="
data_value = 800

[[record]]
smiles_notation = "C=CCNC(=O)/C(C)=C(\\C)c1cccc(C(F)(F)F)c1"
measured_metric = "LD50"
bound_type = "="
data_value = 400

